- Test system: CAMKK1
- Applied conditions: concentration: 1 μM, replicates: in singlicate; n = 1;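 further: KINOMEscan kinase panel screen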
Readout label: %Inh (%)

- O=C(NOCC1CC1)c1ccc(F)c(F)c1Nc1ccc(I)cc1Cl: 0
- COc1cc2ncn(-c3cc(OCc4sccc4Cl)c(C(N)=O)s3)c2cc1OC: 4
- COc1ccc(COc2cc(-n3cnc4ccccc43)sc2C(N)=O)cc1: 4
- O=C(Nc1n[nH]c2cc(-c3cccc(F)c3)ccc12)C1CC1: 18
- CN(C1=C(c2ccccc2)C(=O)NC1=O)c1ccccc1: 0
- COc1ccc(Nc2nccc(N3CCC(NC(=O)Nc4cc(C)ccc4C)C3)n2)cc1 (stereo not drawn): 0
- O=C(Nc1cccc(-c2nn3ncccc3c2-c2ccnc(Nc3cccc(C(F)(F)F)c3)n2)c1)c1c(F)cccc1F: 0
- COc1cc2c(cc1OC[C@@H](O)CO)ncc1c3ccc(C#N)cc3[nH]c21: 60
- CC(=O)Nc1ccc(COc2ccc(Nc3ccnc4cc(-c5ccccn5)ccc34)cc2)cc1.Cl: 4

###

Listed here are molecules together with their documented %Inh.
- Tested on: YSK4
- Construct: gene MAP3K19
- Applied conditions: concentration: 1 μM, replicates: in singlicate; n = 1
Readout label: %Inh (%)

* Cn1ccc2ncnc(Oc3ccc(NC(=O)Nc4ccncc4)c(Cl)c3)c21 | 0
* O=C1NC(=O)C(N2CCc3ccccc32)=C1c1cccc(Cl)c1 [SB-408010] | 0
* Cc1cccc(Cn2ccn3c(=O)cc(N4CCOCC4)nc23)c1 [GSK2297542] | 12
* Fc1ccc(-c2ncn(CCCN3CCOCC3)c2-c2ccccn2)cc1 [SB-211742] | 0
* CCn1cnc2c(N)ncnc21 [GW345098] | 5
* O=C(NCCNc1ccnc(Nc2ccc(F)cc2)n1)c1cc2ccccc2s1 [GSK1379874] | 35
* COc1ccc(COc2cc(-n3cnc4ccccc43)sc2C(N)=O)cc1 [GSK1024304] | 15
* COc1ccc(Nc2ncc(C#N)c(Nc3ccccc3C(N)=O)n2)cc1N1CCN(C)CC1.Cl [GSK1558669] | 99.7
* COCCNC(=O)c1ccc(-c2cc(C(=O)NC3CC3)cc(F)c2C)cc1 [GW868318] | 33
* CNc1ncnc2[nH]ncc12 [SKF-18355] | 46

###

Listed here are compounds together with their documented %Inh.
- Tested on: PKMYT1
- Applied conditions: concentration: 1 μM, replicates: in singlicate; n = 1
Readout label: %Inh (%)

* Fc1ccc(-c2nn3c(OCC(F)(F)F)cccc3c2-c2ccncc2)cc1 [GW514784] | 0
* Cc1ccc(NC(=O)c2ccnc(N3CCN(C)CC3)c2)cc1-c1ccc(C(=O)NCC2CC2)cc1 [GW775604] | 9
* [2H]C([2H])(c1cccc(C(F)(F)F)c1C)n1ccn2c(=O)nc(N3CCOCC3)cc12 [GSK2336394] | 0
* CNc1ncnc2[nH]ncc12 [SKF-18355] | 1
* c1ccc(-c2cc(-c3c[nH]nc3-c3ccccn3)ccn2)cc1 [GW576604] | 3
* Cc1cccc(-c2nc(-c3ccc(S(C)(=O)=O)cc3)sc2-c2ccncc2)c1 | 20
* O=c1cc(N2CCOCC2)nc2n(Cc3cccc4ccccc34)ccn12 [GSK2333389] | 4
* COc1cc(Nc2nccc(N3CCC(NC(=O)c4cccc(NC(C)=O)c4)C3)n2)cc(OC)c1OC (stereo not drawn) [GSK1379754] | 0
* Cc1c(Cn2c(C)nn3c(=O)cc(N4CCOC(C)C4)nc23)cccc1C(F)(F)F (stereo not drawn) [GSK2344444] | 0
* COC(=O)Nc1nc2cc(Oc3ccc(NC(=O)Nc4cc(F)ccc4F)cc3)ccc2[nH]1.Cl [GW701424] | 0
* O=C(c1ccc(-c2cc(-c3c[nH]nc3-c3ccccn3)ccn2)cc1)N1CCOCC1 [GW812171] | 6
* O=C(Nc1cccc(-c2nn3ncccc3c2-c2ccnc(Nc3cccc(C(F)(F)F)c3)n2)c1)c1c(F)cccc1F [GSK299495] | 9
* CN1c2ccc(CNc3ccc(F)cc3)cc2-c2c(cnn2C)S1(=O)=O | 0
* CCn1cnc2c(N)ncnc21 [GW345098] | 5
* COCCNC(=O)c1ccc(-c2cc(C(=O)NC3CC3)cc(F)c2C)cc1 [GW868318] | 10
* Nc1nccc(-c2c(-c3ccc(F)cc3)ncn2C2CCN(CC(F)(F)F)CC2)n1 [SB-236560] | 20
* O=C1NC(=O)C(N2CCc3ccccc32)=C1c1cccc(Cl)c1 [SB-408010] | 20
* NS(=O)(=O)CCc1cccc(Nc2nccc(-c3c(-c4cccc(NC(=O)c5c(F)cccc5F)c4)nn4ccccc34)n2)c1 [GSK336735] | 0

###

- Tested on: YES
- Construct: gene YES1
- Applied conditions: concentration: 1 μM, replicates: in singlicate; n = 1
Readout label: %Inh (%)

* COCCNC(=O)c1ccc(-c2cc(C(=O)NC3CC3)cc(F)c2C)cc1 | 4
* Cc1nnc(-c2ccc(C)c(-c3ccc(C(=O)Nc4ccc(NS(C)(=O)=O)cc4)cc3)c2)o1 | 11
* Cc1cccc(-c2nc(Nc3ccc4ncsc4c3)c3ccccc3n2)n1 | 0
* CSc1ccc(-c2cc3ncnc(SCC(=O)O)c3s2)cc1 | 0
* c1ccc(-c2cc(-c3c[nH]nc3-c3ccccn3)ccn2)cc1 | 0

###

Listed here are compounds together with their documented %Inh.
- Tested on: RPS6KA4(Kin.Dom.2-C-terminal)
- Applied conditions: concentration: 1 μM, replicates: in singlicate; n = 1
Readout label: %Inh (%)

- Fc1ccc(-c2ncn(CCCN3CCOCC3)c2-c2cccnc2)cc1: 0
- O=c1cc(N2CCOCC2)nc2n(Cc3cccc(C(F)(F)F)c3)ccn12: 0
- Cn1cc(-c2ccc3c(c2)CCN3C(=O)Cc2ccccc2Cl)c2c(N)ncnc21: 0
- Cc1cn2c(=O)cc(N3CCOCC3)nc2n1Cc1cccc(Cl)c1Cl: 0
- N#Cc1ccc(-c2cc(-c3c[nH]nc3-c3ccccn3)ccn2)cc1: 0
- CCn1cnc2c(N)ncnc21: 25
- NCC(NC(=O)c1cc(-c2cn[nH]c2)c(-c2ccnc3[nH]ccc23)s1)c1ccccc1.O=C(O)C(F)(F)F.O=C(O)C(F)(F)F (centres unmarked): 43
- O=C(c1ccc(-c2cc(-c3c[nH]nc3-c3ccccn3)ccn2)cc1)N1CCOCC1: 0

###

- Tested on: JNK1
- Construct: gene MAPK8
- Applied conditions: concentration: 1 μM, replicates: in singlicate; n = 1
// returns Criterion not met unless %Inh is strictly below 20%, in which case Criterion met

• COc1ccc(CNC(=O)NC2CCN(c3ccnc(Nc4ccc(OC)cc4)n3)C2)cc1 (centres unmarked) = Criterion not met
• COCCNC(=O)c1ccc(-c2cc(C(=O)NC3CC3)cc(F)c2C)cc1 = Criterion not met
• O=C(Nc1n[nH]c2cc(-c3cccc(F)c3)ccc12)C1CC1 = Criterion not met
• Cn1ccc2ncnc(Oc3ccc(NC(=O)Nc4ccncc4)c(Cl)c3)c21 = Criterion met

###

Listed here are compounds together with their documented %Inh.
- System: FGFR1
- Applied conditions: concentration: 1 μM, replicates: in singlicate; n = 1
Readout label: %Inh (%)

• O=C(NCCNc1ccnc(Nc2ccc(F)cc2)n1)Nc1ccccc1F = 0
• CC(C)(C)n1cnc2c(N)ncnc21 = 0
• Fc1ccc(-c2nn3c(OCC(F)(F)F)cccc3c2-c2ccncc2)cc1 = 0
• NS(=O)(=O)c1cccc(-c2ccc3nccc(-c4cccc(S(N)(=O)=O)c4)c3c2)c1 = 11
• CC(C)Oc1ccc2c(-c3ccnc(Nc4ccc(N5CCN(C)CC5)cc4)n3)cnn2n1 = 15
• Cc1c2ccc(N(C)c3ccnc(Nc4cccc(S(N)(=O)=O)c4)n3)cc2nn1Cc1ccccc1.Cl.Cl = 65
• N#Cc1c(N2CCOCC2)sc(-c2ccn[nH]2)c1-c1ccc(Cl)cc1 = 7
• N#Cc1ccc(-c2cc(-c3c[nH]nc3-c3ccccn3)ccn2)cc1 = 0
• Cc1c(Cn2c(C)nn3c(=O)cc(N4CCOC(C)C4)nc23)cccc1C(F)(F)F (stereo not drawn) = 3
• CN(C(=O)c1ccc(-c2cc(-c3c[nH]nc3-c3ccccn3)ccn2)cc1)C1CCOCC1 = 4
• COCCNC(=O)c1ccc(-c2cc(C(=O)NC3CC3)cc(F)c2C)cc1 = 17
• c1ccc(-c2cc(-c3c[nH]nc3-c3ccccn3)ccn2)cc1 = 0
• COc1ccc(CNC(=O)NC2CCN(c3ccnc(Nc4ccc(OC)cc4)n3)C2)cc1 (stereo not drawn) = 0
• O=C(Nc1cccc(-c2nn3ncccc3c2-c2ccnc(Nc3cccc(C(F)(F)F)c3)n2)c1)c1c(F)cccc1F = 0
• NS(=O)(=O)c1cccc(-c2ccc3ncc(N4CCOCC4)nc3c2)c1 = 0
• CC(=O)Nc1ccc(COc2ccc(Nc3ccnc4cc(-c5ccccn5)ccc34)cc2)cc1.Cl = 0
• Cl.Nc1ncnc2occ(-c3ccc(NC(=O)Nc4cc(C(F)(F)F)ccc4F)cc3)c12 = 74
• O=C(NOCC1CC1)c1ccc(F)c(F)c1Nc1ccc(I)cc1Cl = 0
